System: HEL cells
experimental.details: HEL-based MTT cell viability assay
Design: species or system human
condition.summary: 48 h, read-out: Activity (IC50, reduction of cell viability)
pIC50: −log10 of the molar value.
Provide the reported pIC50 of each item.

Here are 3 compounds together with their reported answers.
INSERT INTO assay_data (compound, endpoint_name, observed_result) VALUES
  ('COc1ccc(C2C3=C(CCCC3=O)OC3=C2C(=O)c2ccccc2C3=O)cc1OC (stereo not shown)', 'pIC50', '> 6.00'),
  ('O=C1CCCC2=C1C(c1ccoc1)C1=C(N2)C(=O)c2ccccc2C1=O (stereo not shown)', 'pIC50', '> 5.52'),
  ('CC1(C)CC(=O)C2=C(C1)NC1=C(C(=O)c3ccccc3C1=O)C2c1cnc(Cl)nc1 (stereo not shown)', 'pIC50', '> 5.52');

Now for the compound whose pIC50 we want.
Specify reported pIC50 for the compound shown: O=C1CCCC2=C1C(c1cccnc1)C1=C(N2)C(=O)c2ccccc2C1=O (stereo not shown)
> 5.52
